Below, each entry is listed with its recorded log10 Ki.
SYSTEM_NAME: Glutamate [NMDA] receptor
EXPERIMENTAL_DETAILS: The compound was tested for its ability to block PCP N-methyl-D-aspartate glutamate receptor at the PCP (phencyclidine) binding site in postmortem human frontal cortex.
Friendly reminder: values = log10 of Ki, unit nM.

In the examples that follow, each entry is paired with its recorded log10 Ki.
MOLECULE	log10 Ki
CN(C)C12CC3CC(C)(CC(C)(C3)C1)C2	3.65
CNC1(c2ccccc2Cl)CCCCC1=O (racemic)	2.62
CCC12CC3CC(CC(N)(C3)C1)C2	2.78

Now consider the entry below.
Ask | Reported log10 Ki, molecule NCCCC12CC3CC(CC(C3)C1)C2 : ____
Reply | 3.98
